The values you see were collected from paper PMC9841431.

# Experimental Protocol: in vitro
# Setup Conditions: African green monkey, VERO cells CC50, 72 h exposure, ATP readout
CC50 vs 10 µg/mL: less than gives 1; not less than gives 0.

>>> group_label("COc1ccc2c(ccc3oc([N+](=O)[O-])c(C)c32)c1 [nNF-C7]")
0

Answer whether the molecule COc1ccc2ccc3oc([N+](=O)[O-])cc3c2c1Br [nNF-C18] has CC50 strictly less than 10 µg/mL 1

Answer whether the molecule CCOC(=O)COc1ccc2ccc3oc([N+](=O)[O-])cc3c2c1 [nNF-C20] has CC50 strictly less than 10 µg/mL 1

Answer whether the molecule CCCCc1c([N+](=O)[O-])oc2ccc3ccccc3c12 [nNF-C12, 1-Butyl-2-nitronaphtho[2,1-b]furan] has CC50 strictly less than 10 µg/mL 0

Answer whether the molecule N#Cc1ccc2c(ccc3oc([N+](=O)[O-])cc32)c1 [nNF-C5] has CC50 strictly less than 10 µg/mL 0

Answer whether the molecule CCc1c([N+](=O)[O-])oc2ccc3ccccc3c12 [nNF-C17, 1-Ethyl-2-nitronaphtho[2,1-b]furan] has CC50 strictly less than 10 µg/mL 0

Answer whether the molecule COc1cc2ccc3oc([N+](=O)[O-])cc3c2cc1OC [nNF-C8, 7,8-Dimethoxy-2-nitronaphtho[2,1-b]furan] has CC50 strictly less than 10 µg/mL 1

Answer whether the molecule COc1ccc2c(ccc3oc([N+](=O)[O-])cc32)c1 [nNF-C16, 7-Methoxy-2-nitronaphtho[2,1-b]furan] has CC50 strictly less than 10 µg/mL 1

Answer whether the molecule CO[C@H]1/C=C/O[C@@]2(C)Oc3c(C)c(O)c4c(O)c(c(/C=N/N5CCN(C)CC5)c(O)c4c3C2=O)NC(=O)/C(C)=C\C=C\[C@H](C)[C@H](O)[C@@H](C)[C@@H](O)[C@@H](C)[C@H](OC(C)=O)[C@@H]1C [RIF, Rifampicin, reference compound] has CC50 strictly less than 10 µg/mL 0
